// note: pIC50 values for IRAK4 (Homo sapiens (Human)) were reported in different studies
pIC50: −log10 of the molar value.

Previously resolved entries follow.
Cc1nsc2nc(Nc3cnn(C4CCOC4)c3)nc(N[C@H]3CC[C@H](N4CCOCC4)CC3)c12 (some centres unmarked) ... 7.57
Cn1cc(-c2cccc(-c3ncc(-c4ccn(C)n4)c(N[C@H]4CC[C@@H](N)CC4)n3)c2)cn1 ... > 7.00
Cn1cc(-c2cccc(-c3ncc(-c4cnn(C)c4)c(N[C@H]4CCC[C@H](O)[C@@H]4O)n3)c2)cn1 ... > 7.00
C[C@H](N)c1cccc(-c2cc(-c3ccccc3)c3cnn(-c4cccc(CO)n4)c3c2)n1 ... > 7.00
Cn1cc(-c2cccc(-c3ncc(-c4cnn(C)c4)c(NCCN)n3)c2)cn1 ... 5.30 to 6.00

// each compound listed below needs its pIC50
1. Cn1cc(-c2cccc(-c3ncc(-c4cnn(C)c4)c(NC4CC(CO)(CO)C4)n3)c2)cn1
2. CC1(N)CCCc2ccc(-c3ccc4cnn(-c5cccc(CO)n5)c4c3)nc21 (centres unmarked)
3. CC(C)(O)[C@H](F)CNC(=O)c1cnc(-c2cnn3cc(Cl)cnc23)cc1Nc1cnn(C2CCOCC2)c1

Reply:
["> 7.00", "> 7.00", 8.52]
